Target: T1, Bzz1-2, P38822
T1 sequence (P38822 568-633, looked up): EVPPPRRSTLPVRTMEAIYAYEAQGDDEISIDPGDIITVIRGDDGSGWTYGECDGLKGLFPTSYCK
Experiment: SPOT array
Details: median of control spots 4538
Property: SPOT intensity

INSERT INTO assay_data (binder, recorded_value) VALUES
  ('SSSSTPPTLPPRRIE', 0),
  ('HPRFVSPRIPSRIVK', 0),
  ('QGYPRQPQRPQRYHP', 0);

[P] HKVLRPFLLRRLKKD
[Q] PKRRAPPPVPKKPSS
[R] FVLRYYILIPHEQWD
[S] SRYRRPLTLLLLKPF
Prompt: Task for the reader: rank each entry by its SPOT intensity, from the minimum upward. Lab note: record answer as labels in requested order.
Response: P, R, S, Q
